Cited source: ChEMBL document CHEMBL1137691

# Tested on: Staphylococcus saprophyticus
# assayOverview: Antibacterial activity against Staphylococcus saprophyticus at 30 ug/disk after 24 hrs by diffusion technique
# Assay type: functional
# details: read-out: DIZ
Classify as follows. Reported zone of inhibition at 30 µg/disc greater than or equal to 30 mm: yes (1). Reported zone of inhibition at 30 µg/disc below: no (0).

Example entries and their recorded answers appear below.
{"columns": ["smilesStr", "cat"],
 "data": [
  ["Cc1ccc[n+](CC(=O)c2ccc(O)c(O)c2)n1", "no (0)"],
  ["O=C(C[n+]1ccc(O)nc1)c1ccc(O)c(O)c1", "yes (1)"],
  ["O=C(N[C@H](CO)[C@H](O)c1ccc([N+](=O)[O-])cc1)C(Cl)Cl", "no (0)"],
  ["Cc1cc[n+](CC(=O)c2ccc(O)c(O)c2)cn1", "yes (1)"]
]}

# check: zone of inhibition at 30 µg/disc of `O=C(C[n+]1cccc(-c2ccc(Br)cc2)n1)c1ccc(O)c(O)c1` is greater than or equal to 30 mm no (0)

# check: zone of inhibition at 30 µg/disc of `O=C(C[n+]1ccccn1)c1ccc(O)c(O)c1` is greater than or equal to 30 mm no (0)

# check: zone of inhibition at 30 µg/disc of `Cc1ccc(-c2ccc[n+](CC(=O)c3ccc(O)c(O)c3)n2)cc1` is greater than or equal to 30 mm yes (1)
